target: Vitamin D3 receptor (Homo sapiens); experiment: Binding affinity to VDR relative to (1-alpha 25-(OH)2D3
property.measured: Activity

CCC(CC)(c1ccc(OC[C@@H](O)CO)c(C)c1)c1ccc(OC[C@H](O)C(C)(C)C)c(C)c1 28.3

P: CCC(CC)(c1ccc(OC[C@H](O)CO)c(C)c1)c1ccc(OC[C@@H](O)C(C)(C)C)c(C)c1
Q: CCC(CC)(c1ccc(OC[C@@H](O)CO)c(C)c1)c1ccc(OC[C@@H](O)C(C)(C)C)c(C)c1
Asked: // returns P or Q , whichever has the lower Activity Mark your selection by writing its label.
Given back: P

Where these numbers come from: ChEMBL document CHEMBL1143855
